- tested_system: monkey GPC3-His protein (monkey)
- method_summary: ELISA, monkey GPC3-His coated; antibody 0.53 nM
measured_parameter: OD450 nm

{"binder": "hAb003LH1L1b (antibody, human IgG1, V domains shown) VH: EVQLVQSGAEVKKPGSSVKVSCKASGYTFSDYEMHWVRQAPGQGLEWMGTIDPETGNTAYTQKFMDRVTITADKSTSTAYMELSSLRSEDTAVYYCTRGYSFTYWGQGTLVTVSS VL: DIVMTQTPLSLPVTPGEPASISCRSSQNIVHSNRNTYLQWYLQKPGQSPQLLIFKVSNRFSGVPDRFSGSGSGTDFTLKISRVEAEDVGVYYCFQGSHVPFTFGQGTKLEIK", "OD450 nm": 2.46}
{"binder": "hAb007LH1L1 (antibody, human IgG1, V domains shown) VH: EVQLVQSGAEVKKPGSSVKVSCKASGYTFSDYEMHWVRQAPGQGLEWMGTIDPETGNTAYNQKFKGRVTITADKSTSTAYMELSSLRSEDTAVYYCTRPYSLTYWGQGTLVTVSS VL: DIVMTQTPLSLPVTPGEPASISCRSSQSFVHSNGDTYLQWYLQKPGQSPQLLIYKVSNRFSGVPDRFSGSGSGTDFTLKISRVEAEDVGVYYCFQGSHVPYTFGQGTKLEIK", "OD450 nm": 2.43}
{"binder": "hAb007LH3L1b (antibody, human IgG1, V domains shown) VH: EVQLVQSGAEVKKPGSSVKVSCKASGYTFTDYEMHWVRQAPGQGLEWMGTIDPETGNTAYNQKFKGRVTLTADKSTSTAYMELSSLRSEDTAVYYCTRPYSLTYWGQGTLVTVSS VL: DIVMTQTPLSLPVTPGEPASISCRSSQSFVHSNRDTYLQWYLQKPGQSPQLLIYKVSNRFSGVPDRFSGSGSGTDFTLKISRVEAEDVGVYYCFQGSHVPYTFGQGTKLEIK", "OD450 nm": 1.95}
{"binder": "hAb006LH3L1a (antibody, human IgG1, V domains shown) VH: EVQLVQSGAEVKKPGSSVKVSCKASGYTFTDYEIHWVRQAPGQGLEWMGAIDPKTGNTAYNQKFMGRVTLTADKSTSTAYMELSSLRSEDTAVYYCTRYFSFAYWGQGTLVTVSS VL: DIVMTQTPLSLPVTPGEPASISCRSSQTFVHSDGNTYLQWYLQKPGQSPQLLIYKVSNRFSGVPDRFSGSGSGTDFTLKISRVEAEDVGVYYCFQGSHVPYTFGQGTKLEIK", "OD450 nm": 1.05}

stdin: OD450 nm for hAb006LH1L1 (antibody, human IgG1, V domains shown) VH: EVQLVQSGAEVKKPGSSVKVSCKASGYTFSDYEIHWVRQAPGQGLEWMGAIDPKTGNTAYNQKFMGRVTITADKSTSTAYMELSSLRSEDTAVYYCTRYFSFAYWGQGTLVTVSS VL: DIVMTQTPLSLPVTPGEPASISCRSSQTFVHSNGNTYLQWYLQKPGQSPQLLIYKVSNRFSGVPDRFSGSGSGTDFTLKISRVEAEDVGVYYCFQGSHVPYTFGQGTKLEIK ?
stdout: 2.5

FYI, the data here is from patent US20260116991A1.
